# target-or-system: Full length human TBK1 (Homo sapiens, UniProt Q9UHD2)
# Construct: Full length human TBK1 with an N-terminal His-tag; His-tag (N); made in house; host or cells: Sf9 insect cells (baculovirus, pFastBac1)
# Sequence (Q9UHD2 whole entry): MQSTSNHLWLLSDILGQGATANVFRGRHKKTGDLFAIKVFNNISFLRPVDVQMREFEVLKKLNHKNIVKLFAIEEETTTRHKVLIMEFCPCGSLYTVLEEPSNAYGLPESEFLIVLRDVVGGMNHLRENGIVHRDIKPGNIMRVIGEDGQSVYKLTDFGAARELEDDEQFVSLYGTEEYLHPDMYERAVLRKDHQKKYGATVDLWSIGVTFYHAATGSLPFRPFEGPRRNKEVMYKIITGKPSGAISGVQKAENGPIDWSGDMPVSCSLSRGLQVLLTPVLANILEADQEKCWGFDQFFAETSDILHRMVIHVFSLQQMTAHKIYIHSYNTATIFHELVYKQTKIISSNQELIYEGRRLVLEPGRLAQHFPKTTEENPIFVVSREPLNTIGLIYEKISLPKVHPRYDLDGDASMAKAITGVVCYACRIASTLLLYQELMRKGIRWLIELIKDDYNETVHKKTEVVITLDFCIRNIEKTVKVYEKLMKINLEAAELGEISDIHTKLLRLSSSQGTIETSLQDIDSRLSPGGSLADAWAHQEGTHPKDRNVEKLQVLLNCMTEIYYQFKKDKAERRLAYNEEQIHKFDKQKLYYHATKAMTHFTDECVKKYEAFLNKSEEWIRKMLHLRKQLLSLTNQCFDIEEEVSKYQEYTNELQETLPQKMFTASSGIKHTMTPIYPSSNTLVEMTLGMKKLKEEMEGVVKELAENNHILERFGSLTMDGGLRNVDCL
# experiment-notes: Inhibition of TBK1 Enzyme (Caliper microfluidic assay)
# Format: biochemical
# condition-details: 25 μM ATP, 60 min at RT; -log(IC50), IC50 molar; read-out: TBK1 Inhibition (pIC50) (converted)
The entries below come with measured IC50 values attached.
Numbers only; they are read as nM.

Some solved entries appear below for comparison.
O=C(Nc1cn2cc(-c3csc(C(=O)N4CC(F)(F)C[C@H]4CO)n3)ccc2n1)C1CC1 : 63.1
N[C@H]1CCCC(F)(F)[C@@H]1NC(=O)c1cc(-c2ccc3nc(NC(=O)C4CC4)cn3c2)cs1 : 10
COCCN(CC(F)F)C(=O)c1cc(-c2ccc3nc(NC(=O)C4CC4)cn3c2)cs1 : 39.8

INPUT: Dear colleague, I am looking for the recorded IC50 of the following molecule: C[C@@H](NC(=O)c1nc(-c2ccc3nc(NC(=O)C4CC4)cn3c2)c[nH]1)C(F)(F)F
OUTPUT: 10
